- System: LOX IMVI
- Protocol Summary: NCI tumour cell line growth inhibition, 48 h
Activity calls are given as the source filed them. Cut-off read from the data, not from the text of the source: active = GI50 up to about 1.1 µM and inactive = higher.
Item-by-item account of GI50
Measurement Kind: GI50

compound="Cc1ccc(SCC(CF)OCn2cc(F)c(=O)[nH]c2=O)cc1 (centres undefined)" measurement_kind=GI50 result="> 100 µM (inactive)"
compound="O=C(O)C1=C(CO)Oc2cc3c(cc2C1c1ccc2c(c1)OCO2)OCO3 (centres undefined)" measurement_kind=GI50 result="> 100 µM (inactive)"
compound="O=S(=O)(c1ccccc1)C1CC(c2nc3ccccc3[nH]2)=NO1 (centres undefined)" measurement_kind=GI50 result="> 100 µM (inactive)"
compound="CC(c1ccccc1)/[N+]([O-])=C/c1ccccc1 (centres undefined)" measurement_kind=GI50 result="> 100 µM (inactive)"

Measured values drawn from ChEMBL document CHEMBL1201862 for this set.
